- experimentNotes: Pharmacokinetic test in rats
- Format: in vivo
- protocolConditions: male, SD, rat, plasma, PO 5 mg/kg
endpointName: half-life (h)

Past entries and their recorded results:
>  <smiles>
[2H]C([2H])([2H])N(c1nc(-c2ccc(F)cc2)c(C#N)s1)c1c(C([2H])([2H])C([2H])([2H])[2H])nn2cc(F)c(N3CCN(CC(=O)N4CC(O)C4)CC3)cc12

>  <units>
h

>  <half-life>
2.87

$$$$
>  <smiles>
[2H]c1c([2H])c(-c2nc(N(C)c3c(CC)nn4cc(F)c(N5CCN(CC(=O)N6CC(O)C6)CC5)cc34)sc2C#N)c([2H])c([2H])c1F

>  <units>
h

>  <half-life>
2.43

$$$$

[I] [2H]C([2H])([2H])C([2H])([2H])c1nn2cc(F)c(N3CCN(CC(=O)N4CC(O)C4)CC3)cc2c1N(C)c1nc(-c2ccc(F)cc2)c(C#N)s1
[II] [2H]c1c([2H])c(-c2nc(N(c3c(CC)nn4cc(F)c(N5CCN(CC(=O)N6CC(O)C6)CC5)cc34)C([2H])([2H])[2H])sc2C#N)c([2H])c([2H])c1F
Ask: # query: argmin of half-life over I and II API: response body contains the label of the selected item.
Result: II
(II: 2.63 h, I: 6.4 h)

* * *

- experimentNotes: Pharmacokinetic test in dogs
- Format: in vivo, male beagles
- protocolConditions: male, beagle, dog, plasma, IV 1 mg/kg, read-out: C0 or Cmax
endpointName: Cmax (ng/mL)
Field format: number, assumed ng/mL, no unit text.

Ask: # query: Cmax of entry [2H]C([2H])([2H])N(c1nc(-c2ccc(F)cc2)c(C#N)s1)c1c(CC)nn2cc(F)c(N3CCN(CC(=O)N4CC(O)C4)CC3)cc12
Result: 1490

* * *

- experimentNotes: Pharmacokinetic test in dogs
- Format: in vivo, male beagles
- protocolConditions: male, beagle, dog, plasma, PO 2 mg/kg
endpointName: AUC (ng·h/mL)
Field format: number, assumed ng·h/mL, no unit text.

Ask: # query: AUC of entry [2H]C([2H])([2H])N(c1nc(-c2ccc(F)cc2)c(C#N)s1)c1c(CC)nn2cc(F)c(N3CCN(CC(=O)N4CC(O)C4)CC3)cc12
Result: 15900

* * *

- experimentNotes: Dynamic solubility test in water and biological vehicles
- Type: physicochemical
- protocolConditions: fasted-state simulated intestinal fluid (FaSSIF), pH 6.5, thermodynamic from solid; vehicle FaSSIF, 2 h, 37° C.; read-out: S: Solubility
endpointName: solubility at 2 h (µg/mL)
Field format: number, assumed µg/mL, no unit text.

Ask: # query: solubility at 2 h of entry [2H]C([2H])([2H])N(c1nc(-c2ccc(F)cc2)c(C#N)s1)c1c(CC)nn2cc(F)c(N3CCN(CC(=O)N4CC(O)C4)CC3)cc12 [Compound A Crystal form I]
Result: 270

* * *

- experimentNotes: Pharmacokinetic test in monkeys
- Format: in vivo, Cynomolgus macaques
- protocolConditions: male, cynomolgus monkey, plasma, PO 5 mg/kg, read-out: C0 or Cmax
endpointName: Cmax (ng/mL)
Field format: number, assumed ng/mL, no unit text.

Ask: # query: Cmax of entry [2H]C([2H])([2H])N(c1nc(-c2ccc(F)cc2)c(C#N)s1)c1c(CC)nn2cc(F)c(N3CCN(CC(=O)N4CC(O)C4)CC3)cc12
Result: 657
